Molecular target: human NOX4 (Homo sapiens)
Construct: expressed in transfected cells; membrane fraction used
Experiment: Cell free membrane based in vitro NOX4 assay: H2O2 production by membranes expressing human NOX4, measured with Amplex Red
Type: biochemical
Conditions: 1.0 μM compound, read-out: Percentage inhibition at 1.0 μM
Property: inhibition at 1 µM; scope: individual compounds
Numbers only here, please. The scale is %.

Cc1c2oc(-c3ccccc3Cl)c(O)c(=O)c2nn1C(C)C    8.66
Cc1nn(Cc2ccccc2)c2[nH]c(-c3c(F)cccc3F)c(O)c(=O)c12    95
CCCn1nc(CC)c2c(=O)c(O)c(-c3ccc(F)cc3F)[nH]c21    74.4
Cn1nc(C(F)(F)F)c2c(=O)c(O)c(-c3c(F)cccc3Cl)[nH]c21    89.1
Cn1nc(CO)c2c(=O)c(O)c(-c3c(F)cccc3F)[nH]c21    96.5

Quick one: give measured inhibition at 1 µM for CCc1nn(C)c2[nH]c(-c3c(F)cccc3F)c(O)c(=O)c12 81.5

Quick one: give measured inhibition at 1 µM for COc1ccc(-c2[nH]c3c(c(C(F)(F)F)nn3C)c(=O)c2O)c(F)c1 100

Quick one: give measured inhibition at 1 µM for CCc1nn(CCCN2CCOCC2)c2[nH]c(-c3c(F)cccc3F)c(O)c(=O)c12 84

====

Target: human NOX4 (Homo sapiens, UniProt Q9NPH5)
Construct: membrane fraction used
Sequence (Q9NPH5 whole entry): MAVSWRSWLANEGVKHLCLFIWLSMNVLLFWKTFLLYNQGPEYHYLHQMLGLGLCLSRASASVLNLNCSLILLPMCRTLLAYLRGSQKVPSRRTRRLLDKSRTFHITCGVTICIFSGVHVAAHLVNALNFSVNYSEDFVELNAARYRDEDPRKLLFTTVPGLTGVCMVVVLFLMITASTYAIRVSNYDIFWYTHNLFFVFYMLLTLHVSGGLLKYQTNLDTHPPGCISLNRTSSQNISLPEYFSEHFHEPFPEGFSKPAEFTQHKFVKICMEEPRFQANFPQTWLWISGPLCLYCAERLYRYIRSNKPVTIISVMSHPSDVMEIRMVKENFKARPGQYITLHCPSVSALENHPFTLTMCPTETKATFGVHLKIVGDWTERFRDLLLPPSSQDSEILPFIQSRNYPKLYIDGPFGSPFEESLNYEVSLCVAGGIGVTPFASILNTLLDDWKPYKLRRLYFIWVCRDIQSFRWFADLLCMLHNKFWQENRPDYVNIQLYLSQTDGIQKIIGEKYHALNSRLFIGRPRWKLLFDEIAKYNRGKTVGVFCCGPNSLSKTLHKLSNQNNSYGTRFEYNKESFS
Sequence (P13498 whole entry partner): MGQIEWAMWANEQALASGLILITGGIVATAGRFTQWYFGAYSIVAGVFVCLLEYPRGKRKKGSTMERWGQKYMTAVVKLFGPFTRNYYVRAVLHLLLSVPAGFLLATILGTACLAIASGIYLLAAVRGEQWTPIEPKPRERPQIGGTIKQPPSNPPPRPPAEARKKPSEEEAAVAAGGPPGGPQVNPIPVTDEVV
Test: Cell free membrane based in vitro NOX4 assay: H2O2 production by membranes expressing human NOX4, measured with Amplex Red
Details: class symbols
pIC50: −log10 of the molar value.
Property: pIC50; scope: individual compounds

Before answering, review these 4 worked examples.
CCn1nc(C)c2c(=O)c(O)c(-c3c(F)cccc3Cl)[nH]c21    < 6.82
Cn1nc(C(F)(F)F)c2c(=O)c(O)c(-c3ccc(F)cc3)[nH]c21    6.82 to 7.00
COc1ccc(-c2[nH]c3c(c(C)nn3C)c(=O)c2O)c(Cl)c1    6.82 to 7.00
Cn1nc(Cc2ccccc2)c2c(=O)c(O)c(-c3c(F)cccc3F)[nH]c21    6.82 to 7.00

Quick one: give measured pIC50 for CCc1nn(CC2CCOCC2)c2[nH]c(-c3ccccc3Cl)c(O)c(=O)c12 6.82 to 7.00

Quick one: give measured pIC50 for COCc1nn(C)c2[nH]c(-c3c(F)cccc3F)c(O)c(=O)c12 7.00 to 7.30

Quick one: give measured pIC50 for CCc1nn(CCC(C)C)c2[nH]c(-c3c(F)cccc3F)c(O)c(=O)c12 > 7.30

====

Property: inhibition at 1 µM; scope: individual compounds
Biological target: human NOX4 (Homo sapiens)
Construct: expressed in transfected cells; membrane fraction used
Assay: Cell free membrane based in vitro NOX4 assay: H2O2 production by membranes expressing human NOX4, measured with Amplex Red
Format: biochemical
Details: 1.0 μM compound, read-out: Percentage inhibition at 1.0 μM
Numbers only here, please. The scale is %.

Cc1c2oc(-c3ccccc3Cl)c(O)c(=O)c2nn1C [Example 227]    6.03
CCn1nc(C)c2c(=O)c(O)c(-c3ccc(NS(C)(=O)=O)cc3F)[nH]c21 [Example 235]    72.9
CC(C)Cn1nc(C(F)(F)F)c2c(=O)c(O)c(-c3c(F)cccc3F)[nH]c21 [Example 111]    56.4

Quick one: give measured inhibition at 1 µM for CN(C)CCn1nc(C(F)(F)F)c2c(=O)c(O)c(-c3ccccc3Cl)[nH]c21 [Example 154] 99.6
